Readings of melting point for the listed compounds

{"columns": ["COMPOUND", "melting point"],
 "data": [
  ["CCOC(=O)c1cc2ccccc2n1-c1ccc(OC)c(OC)c1", "126 to 128 °C"],
  ["CN1CCN(c2ccc(-c3cnc4c(c3)N(Cc3cc(Cl)ccc3C(F)(F)F)CCN4)cn2)CC1", "226 to 227 °C"],
  ["COc1ccccc1-c1c(=O)[nH]c2cc(Cl)c(Cl)cc2[n+]1[O-]", "239 to 241 °C"],
  ["O=C1CCCN1Cc1ccc(F)cc1", "37 to 38 °C"],
  ["N#Cc1cc(-c2ncccc2C(=O)O)ccc1OCCc1ccccc1Cl", "187 to 188 °C"],
  ["CC(=O)NNc1ccnc2c(NC(=O)c3c(Cl)cccc3Cl)cc(C(F)(F)F)cc12", "174 to 178 °C"],
  ["COc1ccc2[nH]c3c(c2c1)C[C@@]1(C)C(=O)N(CCn2ccnc2)C(=O)N1[C@@H]3c1cccc(O)c1 (racemic)", "321 to 324 °C"],
  ["O=S(=O)(Br)c1ccc(Br)s1", "48 to 50 °C"],
  ["COc1ccc(CCCC2OC(=O)NC2=O)cc1OCc1nc(-c2ccccc2)oc1C (stereo not given)", "185 to 187 °C"],
  ["Cc1cc(C)n(-c2cncc(Nc3ccc(Cl)cc3)n2)n1", "157 to 159 °C"],
  ["CCc1oc2ccccc2c1C(=O)c1c(Br)cc(Br)c(O)c1Br", "153 to 154 °C"],
  ["CCOC(=O)Oc1cc(C(C)(C)C)oc(=O)c1-c1c(C)cc(C)cc1C", "92 to 94 °C"],
  ["CCC1c2cc(Cl)ccc2-c2ccc(Cl)cc21", "80 to 83 °C"],
  ["Nc1ccc(-c2cnn3c(O)ncnc23)cc1", "> 300 °C"],
  ["CCOC(=O)C1=C(C)NC(C#N)=C(C(=O)OCC)C1c1ccccc1/C=C/C(=O)OC(C)(C)C (stereo not given)", "146 to 147 °C"],
  ["CC(C)n1c(S(=O)(=O)c2ccc(O)cc2)nc2ccccc21", "198 °C"],
  ["CN(C)CC(C)(C)Oc1ccc(Nc2cc(-c3cccc(-n4ncc5cc(C(C)(C)C)cc(F)c5c4=O)c3CO)nn(C)c2=O)nn1", "140 to 145 °C"],
  ["CCOC(=O)CCNC(=O)N1CCn2c(c(C(N)=O)c(Cl)c2-c2ccccc2)C1", "50 to 60 °C"],
  ["CNCC1Cc2cc(-c3ccccc3)cc(-c3ccc(OC)cc3)c2O1 (stereo not given)", "> 250 °C"],
  ["COc1ccc2c(Cc3c(Cl)cncc3Cl)nnc(-c3nccs3)c2c1", "225 to 230 °C"],
  ["COc1ccc(C(=Cc2nnnn2C)c2ccc(OC)cc2)cc1", "146 to 147 °C"],
  ["Cn1nc(-c2cnc(N)nc2-c2ccc(Cl)c(Cl)c2)ccc1=O", "238 °C"],
  ["O=C1c2cc(Cl)ccc2-n2c1nc1ccccc1c2=O", "295 to 296 °C"],
  ["CN1C(=O)COc2cc3c(cc21)OCC31C(=O)Nc2ccccc21 (stereo not given)", "> 250 °C"],
  ["CCN(CC)C(=O)Nc1ccc2c(c1)C(c1ccccc1F)=NCC(=O)N2C", "138 to 139 °C"],
  ["CCOC(=O)C(=CNc1ccc(CO)cc1I)C(=O)OCC", "152 to 154 °C"],
  ["N#Cc1ccc(OCCCOc2ccc(-c3cc4cc(C#N)ccc4o3)cc2)cc1", "188 to 189 °C"],
  ["CCOC(=O)CCCNC(=O)c1n[nH]cc1NC(=O)c1ccccn1", "179 to 180 °C"],
  ["CSC(=NCCSCc1[nH]cnc1C)NC#N", "148 to 150 °C"],
  ["COc1cc(C#N)cc(-c2ccc3c(c2)C(C)(C)OC(=S)N3)c1", "201 to 202 °C"],
  ["CC(=O)Nc1cccc2ccc(OCC3CC3)cc12", "154 to 155 °C"],
  ["Cn1cc(CO)c(=O)c2ccc(Cl)cc21", "204 to 206 °C"],
  ["C#CCOc1ccc(CCNC(=O)C(=O)c2ccc(-c3ccc(Cl)cc3)cc2)cc1OC", "122 to 124 °C"],
  ["COCCNC(=O)c1ccc(C(=O)NS(=O)(=O)c2ccc(CCNC(=O)CCc3ccc(OC)c(OC)c3)cc2)cn1", "87 to 89 °C"],
  ["O=C(CCN1CCN(c2ccc(F)cc2)CC1)c1cnn2c1CCCC2", "141 to 142 °C"],
  ["O=C(CF)NC[C@H]1CN(c2ccc(N3CCN(c4ccc([N+](=O)[O-])s4)CC3)c(F)c2)C(=O)O1", "145 to 150 °C"],
  ["Cc1ncc(CSSCc2cnc(C)c(O)c2CN(C)C)c(CN(C)C)c1O", "195 to 201 °C"],
  ["CN(C)S(=O)(=O)c1ccc(Cl)c(-c2csc(=Nc3ccccc3)n2C)c1", "195 to 197 °C"],
  ["COC1(OC)C(=O)N(C)c2ccc(I)cc21", "101 to 103 °C"],
  ["Cc1ccc(C(=O)N(C)C2CCCCC2)cc1", "70 to 71 °C"]
]}

---

Readings of melting point for the listed compounds

{"columns": ["COMPOUND", "melting point"],
 "data": [
  ["CCCCCCCCCCCCSc1ccc2c(c1)C(=O)c1c(c(Oc3ccccc3)c3ccccc3c1Oc1ccccc1)C2=O", "165 to 168 °C"],
  ["CCCCCCCCCCCC#Cc1cnccc1C=C(C(=O)O)C(=O)O", "175 to 177 °C"],
  ["CC1(C)Oc2cc([N+](=O)[O-])ccc2[C@@H](N2Cc3ccccc3C2=O)[C@@H]1O (relative stereo)", "249 to 250 °C"],
  ["Cc1c(N(C)C)n2c(cc1=O)CCCC2", "> 240 °C"],
  ["CCCOc1ccc(Br)cc1-c1nc2cc3nc[nH]c3cc2c(=O)[nH]1", "154 to 155 °C"],
  ["CCn1cnc2c(Nc3cccc(Cl)c3)nc(N3CCCC(N)C3)nc21 (stereo not given)", "165 °C"],
  ["C#CCNC(=O)c1ncn2c1[C@@H]1CCN1C(=O)c1ccccc1-2", "214 to 215 °C"],
  ["Cn1cc(-c2nc3c(N[C@H]4[C@@H](C(N)=O)[C@@H]5C=C[C@H]4C5)c(Br)cnc3[nH]2)cn1", "255 to 258 °C"],
  ["O=CC=CC(=C(c1ccc(F)cc1)c1ccc(F)cc1)c1nnn(C(c2ccccc2)(c2ccccc2)c2ccccc2)n1", "122 to 124 °C"],
  ["Cc1ccc(OC(=O)C=Cc2ccc([N+](=O)[O-])cc2)cc1", "168 to 170 °C"],
  ["N#CC(Cc1ccccc1)C(=O)O (stereo not given)", "97 °C"],
  ["CCOc1sc(C(=O)N2CCCC2)c2c1C(=O)C(=CO)C(C)(C)C2", "140 to 142 °C"],
  ["Cc1c(CCC(=O)O)cccc1C(=O)c1ccc(Cl)cc1", "144 to 148 °C"],
  ["COC(=O)c1cscc1N=C=S", "93 to 95 °C"],
  ["COC(=O)c1nn(Cc2cccc(OC)c2)c2c1CCc1cc(OCc3cncnc3)ccc1-2", "184 °C"],
  ["CS(=O)(=O)Oc1cc(CC(=O)O)on1", "101 to 103 °C"],
  ["CCOC(=O)c1c2ccc(Cl)cc2c(-c2ccccc2)n1CCNC(=O)OCc1ccccc1", "102 to 104 °C"],
  ["C#Cc1cccc(Nc2ncnc3cc(OCCOC(C)=O)c(OCCOC)cc23)c1", "134 to 135 °C"],
  ["COc1ccc(C2CCCCC2)cc1-c1csc(NC(=O)N2CCN(C[C@@H]3CCCN(CC#N)C3)CC2)n1", "106 °C"],
  ["CNC(=S)C1(c2cnc3ccccc3c2)CCCS1 (stereo not given)", "159 °C"]
]}

---

{"columns": ["COMPOUND", "melting point"],
 "data": [
  ["O=C(NC1CCN(CCC2CCOc3ccccc32)CC1)c1cc2ccccc2o1 (stereo unspecified)", "146 to 148 °C"],
  ["NC(CCCc1ccccc1)C(=O)O (stereo unspecified)", "213 to 215 °C"],
  ["O=C(NCc1ccccn1)Nc1cc(-n2c(=O)n(-c3ccccc3)c3ccccc32)ccn1", "231 to 232 °C"],
  ["CCc1c(O)cc(=O)[nH]c1C", "360 °C"],
  ["c1ccc(CC(=Nn2cncn2)c2ccccc2)cc1", "78 to 80 °C"],
  ["CC(C)(C)C(O)C(Oc1ccccc1)n1ccnc1 (stereo unspecified)", "99 to 105 °C"],
  ["CCOC(=O)C(C)Oc1ccc(Oc2nc3ccc(Cl)cc3s2)cc1 (stereo unspecified)", "49 °C"],
  ["CC1(C)CON(Cc2ccc(N3C(=O)C4=C(CCCC4)C3=O)cc2Cl)C1=O", "102 to 104 °C"],
  ["O=c1[nH]c2cc3ccc(C(F)(F)F)cc3nc2[nH]1", "> 250 °C"],
  ["NCCN1CCC(Nc2nc3ccccc3n2Cc2cccs2)CC1", "137 °C"],
  ["O=C(c1cc(=O)c2c(OCCOc3ccccc3)cccc2o1)N1CCN(CCO)CC1", "191 °C"],
  ["O=c1[nH]c2cc(Cl)cc(Cl)c2c(O)c1Sc1ccc(O)cc1", "> 300 °C"],
  ["CNC(=O)Cc1ccc2ccn(C3CCN(CCc4ccccc4F)CC3)c2c1", "136 to 137 °C"],
  ["CC1(C)CCC(C)(C)c2c1ccc(C=Nc1ccc(C(=O)O)c(O)c1)c2N", "209 to 210 °C"],
  ["O=C(C=Cc1ccc(Br)cc1)c1cc(Br)ccc1[N+](=O)[O-]", "169 to 190 °C"],
  ["CC(=NNC(=O)c1ccccc1)c1ccccn1", "152 °C"],
  ["C#CCNC(=C[N+](=O)[O-])NCCSCc1csc(NC(=N)N)n1", "82 to 90 °C"],
  ["CCOC(=O)c1ccc(C(C)(C)C(N)=O)cc1", "104 to 109 °C"],
  ["Cc1cccc(NS(=O)(=O)c2ccc(NC3=C(Cl)C(=O)c4ccccc4C3=O)cc2)c1", "234 to 237 °C"],
  ["Cn1cc(C(F)(F)F)c(CS(=O)(=O)C2=NOC(C)(C)C2)n1", "125 to 126 °C"],
  ["O=C(C=Cc1cccc(S(=O)(=O)N2CCN(c3ccccc3F)CC2)c1)NO", "176 °C"]
]}
